Test system: LXRa:RXRa (NR concentration 270 nM, RXRa partner concentration 90 nM)
test.name: PBM binding z-score (relative to random genomic background probes); higher = stronger binding; sequences stand for … in GC…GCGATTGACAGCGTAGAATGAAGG
reported.metric: PBM binding z-score
Answer with the value's number alone.

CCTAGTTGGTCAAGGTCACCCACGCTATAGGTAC 3.51
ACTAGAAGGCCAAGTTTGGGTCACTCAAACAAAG 0.517
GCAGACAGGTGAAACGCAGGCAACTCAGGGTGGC -0.232
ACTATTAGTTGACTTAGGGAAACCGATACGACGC 0.155
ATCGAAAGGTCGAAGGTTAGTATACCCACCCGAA 3.5

Fill in: PBM binding z-score on LXRa:RXRa (NR concentration 270 nM, RXRa partner concentration 90 nM), entry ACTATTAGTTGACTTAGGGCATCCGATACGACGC 0.0994

System LXRa:RXRa (NR concentration 270 nM, RXRa partner concentration 90 nM). Read-out PBM binding z-score. Item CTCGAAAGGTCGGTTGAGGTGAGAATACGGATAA . Report value. 1.74

Report value: PBM binding z-score, system: LXRa:RXRa (NR concentration 270 nM, RXRa partner concentration 90 nM), sequence: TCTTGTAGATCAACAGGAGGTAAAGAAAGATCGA -0.0725

Give PBM binding z-score only, for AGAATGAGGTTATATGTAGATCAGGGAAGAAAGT , using LXRa:RXRa (NR concentration 270 nM, RXRa partner concentration 90 nM) data. 1.96

Name the recorded PBM binding z-score of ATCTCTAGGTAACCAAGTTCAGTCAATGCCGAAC , assay system LXRa:RXRa (NR concentration 270 nM, RXRa partner concentration 90 nM). 1.13

Report measured PBM binding z-score on LXRa:RXRa (NR concentration 270 nM, RXRa partner concentration 90 nM); entry: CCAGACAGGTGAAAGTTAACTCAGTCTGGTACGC 0.237

Write PBM binding z-score of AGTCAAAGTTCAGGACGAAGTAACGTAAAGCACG ; system used: LXRa:RXRa (NR concentration 270 nM, RXRa partner concentration 90 nM) 3.49

State the measured PBM binding z-score (LXRa:RXRa (NR concentration 270 nM, RXRa partner concentration 90 nM)) of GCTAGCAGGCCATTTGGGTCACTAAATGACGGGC -0.203
